Assignment: determine reported Percent Effect for the given compounds.
- target_system: Proteasome subunit beta (Trypanosoma cruzi)
- assay_procedure: Trypanosoma cruzi proteasome chymotrypsin-like activity (TcProtChymo) assay.
- Format: functional
- Design: scale not given: in the data most compounds retested in dose-response had high values
- applied_conditions: 9.37 µM
Remember to put the unit after the number in your answer.

The cases that follow already have their Percent Effect on record.
| compound | target_system | Percent Effect |
| --- | --- | --- |
| CN1CCCC2(CCN(C(=O)CCn3cncn3)C2)C1=O (stereo not drawn) | Proteasome subunit beta (Trypanosoma cruzi) | 12% |
| O=C1C(NCc2nnc3n2CCCC3)CCN1CC(F)(F)F (stereo not drawn) | Proteasome subunit beta (Trypanosoma cruzi) | 1.79% |
| CCc1nc2n(n1)CC(NCC(=O)Nc1ccc(Cl)cn1)CC2 (stereo not drawn) | Proteasome subunit beta (Trypanosoma cruzi) | 5.82% |
| NC(=O)NCC(=O)N1C[C@H]2CC[C@@H]1CN(Cc1ccccc1)C2 | Proteasome subunit beta (Trypanosoma cruzi) | 11.4% |
| COc1c(CNCc2cccc(CN(C)C)c2)c(C)nn1C | Proteasome subunit beta (Trypanosoma cruzi) | -0.36% |
| CC(Nc1cccc(CN2CCOC2=O)c1)C(=O)Nc1ccccc1F (stereo not drawn) | Proteasome subunit beta (Trypanosoma cruzi) | 3.5% |
| CN1CCC/C1=N\S(=O)(=O)c1ccc(NC(=O)c2cccs2)cc1 | Proteasome subunit beta (Trypanosoma cruzi) | 12.5% |
| Cc1ccc(OC2(C(=O)O)CCN(C(=O)c3ccc(F)cc3)CC2)cn1 | Proteasome subunit beta (Trypanosoma cruzi) | 1.88% |
| CN(Cc1noc(C2CC2)n1)C1CCN(Cc2nnc(C3CC3)o2)C1 (stereo not drawn) | Proteasome subunit beta (Trypanosoma cruzi) | 17.4% |
| CCSCC(C)NCc1nncn1C1CCCCC1 (stereo not drawn) | Proteasome subunit beta (Trypanosoma cruzi) | 16% |

Quick request: Percent Effect for each listed item, please.
1. CCn1cnnc1CNC(=O)N1CCN(c2nc(C)c(C)s2)CC1
2. CC(C(=O)NCCN1CCCCCC1)n1cncn1 (stereo not drawn)
3. N#Cc1ccc(C(=O)N2CC[C@H]3[C@@H]2CCC(=O)N3c2cccnc2)cc1
4. Cc1ccsc1CN(Cc1ccccn1)CC(C)C
5. Cc1n[nH]c(C2CN(CC(=O)NCc3ccco3)CCO2)n1 (stereo not drawn)
6. Cc1nccn1-c1cccc(C2CCCN2S(=O)(=O)N(C)C)n1 (stereo not drawn)
7. CC(NC1(CNC(=O)Cn2cccn2)CCOCC1)c1ccccc1 (stereo not drawn)
8. COCCO[C@H]1CCN(C(=O)c2ccc[nH]2)[C@H]1Cc1ccncc1

Completion:
["0.676%", "3.98%", "18.3%", "8.95%", "6.8%", "8.05%", "9.01%", "2.73%"]
